Source listed as paper PMC12135066.

The following compounds are listed with their measured Xenograft-to-blood ratio values.
system: HEK-uPAR xenograft-bearing nude mice; test: Biodistribution studies in HEK-uPAR xenograft-bearing nude mice; details: 24 h p.i.; average ± SD, n=3 animals
Lab note: write the figure by itself, no unit.

CC(C)C[C@H](NC(=O)[C@H](Cc1ccc(O)cc1)NC(=O)[C@@H](CCCNC(=N)N)NC(=O)[C@@H](CO)NC(=O)[C@H](Cc1ccccc1)NC(=O)[C@H](CC1CCCCC1)NC(=O)[C@H](CC(=O)O)NC(=O)[C@H](CCCCNC(=O)CCCc1ccc(I)cc1)NC(=O)CN1CCN(CC(=O)O)CCN(CC(=O)O)CCN(CC(=O)O)CC1)C(=O)N[C@@H](Cc1c[nH]c2ccccc12)C(=O)N[C@@H](CO)C(N)=O [[^177Lu]Lu-uPAR-01, metal not drawn]: 1.3

## Input Determine its reported Xenograft-to-blood ratio: CC(C)C[C@H](NC(=O)[C@H](Cc1ccc(O)cc1)NC(=O)[C@@H](CCCNC(=N)N)NC(=O)[C@@H](CO)NC(=O)[C@H](Cc1ccccc1)NC(=O)[C@H](CC1CCCCC1)NC(=O)[C@H](CC(=O)O)NC(=O)CCOCCOCCOCCOCCNC(=O)[C@H](CCCCNC(=O)CCCc1ccc(I)cc1)NC(=O)CN1CCN(CC(=O)O)CCN(CC(=O)O)CCN(CC(=O)O)CC1)C(=O)N[C@@H](Cc1c[nH]c2ccccc12)C(=O)N[C@@H](CO)C(N)=O [[^177Lu]Lu-uPAR-05, metal not drawn]
## Output 0.66

## Input Determine its reported Xenograft-to-blood ratio: CC(C)C[C@H](NC(=O)[C@H](Cc1ccc(O)cc1)NC(=O)[C@@H](CCCNC(=N)N)NC(=O)[C@@H](CO)NC(=O)[C@H](Cc1ccccc1)NC(=O)[C@H](CC1CCCCC1)NC(=O)[C@H](CC(=O)O)NC(=O)[C@H](CCCCNC(=O)CCCc1ccc(I)cc1)NC(=O)[C@@H](N)CCCCNC(=O)CN1CCN(CC(=O)O)CCN(CC(=O)O)CCN(CC(=O)O)CC1)C(=O)N[C@@H](Cc1c[nH]c2ccccc12)C(=O)N[C@@H](CO)C(N)=O [[^177Lu]Lu-uPAR-04, metal not drawn]
## Output 0.61

## Input Determine its reported Xenograft-to-blood ratio: CC(C)C[C@H](NC(=O)[C@H](Cc1ccc(O)cc1)NC(=O)[C@@H](CCCNC(=N)N)NC(=O)[C@@H](CO)NC(=O)[C@H](Cc1ccccc1)NC(=O)[C@H](CC1CCCCC1)NC(=O)[C@H](CC(=O)O)NC(=O)CN1CCN(CC(=O)O)CCN(CC(=O)O)CCN(CC(=O)O)CC1)C(=O)N[C@@H](Cc1c[nH]c2ccccc12)C(=O)N[C@@H](CO)C(N)=O [[^177Lu]Lu-DOTA-AE105, metal not drawn, reference compound]
## Output 32
